molecular target: T1, recombinant human CD3ε/δ heterodimer SEED Fc fusion protein (human, UniProt P07766 23-126; P04234 22-105); test: biolayer interferometry, TCE immobilized
T1 construct: not shown: SEED Fc arm, not specified
T1 sequence (P07766 23-126, stated change not applied, chain 1 of 2): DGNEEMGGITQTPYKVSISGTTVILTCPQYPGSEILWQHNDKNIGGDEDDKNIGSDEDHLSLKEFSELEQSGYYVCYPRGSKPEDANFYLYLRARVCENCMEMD
T1 sequence (P04234 22-105, stated change not applied, chain 2 of 2): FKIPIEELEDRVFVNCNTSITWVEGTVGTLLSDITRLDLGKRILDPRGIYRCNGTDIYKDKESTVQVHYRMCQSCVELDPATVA
For each entry below, report its pKd value.
Keep in mind that pKd stands for -log10 of concentration in molar terms.

Q: Name the reported pKd value associated with the binder 1F3.5 VL1.00-VH1.01 (CD3-binding bispecific TCE of Table 30) (bispecific antibody, V domains shown, CD3 Fab arm only) VH: EVQLVESGGGLVQPGGSLKLSCAASGFTFNTYAMNWVRQASGKGLEWVGRIRSKYNNYATYYADSVKGRFTISRDDSKNTLYLQMNSLKTEDTAVYYCVRHGNFGNSYVSWFAYWGQGTMVTVSS VL: QAVVTQEPSLTVSPGGTVTLTCRSSTGAVTTSNYANWVQQKPGQAPRGLIGGTNKRAPGTPARFSGSLLGGKAALTLSGVQPEDEAEYYCALWYSNLWVFGGGTKLTVLG
Ans: 8.54

Q: What value of pKd has been recorded for this entry: Parental 1F3.5 (CD3-binding bispecific TCE of Table 30) (bispecific antibody, V domains shown, also called IF3.5) VH: EVQLVESGGGLVQPGGSLRLSCAASGFTFNTYAMNWVRQAPGKGLEWVARIRSKYNNYATYYADSVKDRFTISRDDSKNTLYLQMNSLRAEDTAVYYCVRHGNFGNSYVSWFAYWGQGTMVTVSS VL: QAVVTQEPSLTVSPGGTVTLTCRSSTGAVTTSNYANWVQQKPGQAPRGLIGGTNKRAPGTPARFSGSLLGGKAALTLSGVQPEDEAEYYCALWYSNLWVFGGGTKLTVLG
Ans: 8.57

Q: Recorded pKd of 1F3.5 VL1.01-VH1.04 (CD3-binding bispecific TCE of Table 30) (bispecific antibody, V domains shown, CD3 Fab arm only) VH: EVQLVESGGGLVQPGGSLKLSCAASGFTFNTYAMNWVRQASGKGLEWVGRIRSKYNNYATYYADSVKGRFTISRDDSKNTLYLQMNSLKTEDTAVYYCVRHGNFGESYVSWFAYWGQGTMVTVSS VL: QTVVTQEPSLTVSPGGTVTLTCASSTGAVTTSNYANWVQQKPGQAPRALIGGTNKRAPGTPARFSGSLLGGKAALTLSGVQPEDEAEYYCALWYSNLWVFGGGTKLTVLG , please.
Ans: 7.13

Q: Reported pKd for 1F3.5 VL1.01-VH1.03 (CD3-binding bispecific TCE of Table 30) (bispecific antibody, V domains shown, CD3 Fab arm only) VH: EVQLVESGGGLVQPGGSLKLSCAASGFTFNTYAMNWVRQASGKGLEWVGRIRSKYNNYATYYADSVKGRFTISRDDSKNTLYLQMNSLKTEDTAVYYCVRHGNFGASYVSWFAYWGQGTMVTVSS VL: QTVVTQEPSLTVSPGGTVTLTCASSTGAVTTSNYANWVQQKPGQAPRALIGGTNKRAPGTPARFSGSLLGGKAALTLSGVQPEDEAEYYCALWYSNLWVFGGGTKLTVLG : what is it?
Ans: 7.07

Q: So what does the record say about pKd for 1F3.5 VL1.01-VH1.05 (CD3-binding bispecific TCE of Table 30) (bispecific antibody, V domains shown, CD3 Fab arm only) VH: EVQLVESGGGLVQPGGSLKLSCAASGFTFNTYAMNWVRQASGKGLEWVGRIRSKYNNYATYYADSVKGRFTISRDDSKNTAYLQMNSLKTEDTAVYYCVRHGNFGNAYVSFAYWGQGTMVTVSS VL: QTVVTQEPSLTVSPGGTVTLTCASSTGAVTTSNYANWVQQKPGQAPRALIGGTNKRAPGTPARFSGSLLGGKAALTLSGVQPEDEAEYYCALWYSNLWVFGGGTKLTVLG ?
Ans: 7.23
